Consider the following IC50 values measured on UniProt P01116.

# molecule, system under test, IC50 [µM]
measured = [
    ("CC1(C)CC[C@]2(C(=O)O)CC[C@]3(C)C(=CC[C@@H]4[C@@]5(C)CC[C@H](OC(=O)c6c(F)ccc(F)c6C(=O)O)C(C)(C)[C@@H]5CC[C@]43C)[C@@H]2C1", "UniProt P01116", 1.33),
    ("C=C(C)[C@@H]1CC[C@]2(C(=O)O)CC[C@]3(C)[C@H](CC[C@@H]4[C@@]5(C)CC[C@H](OC(=O)c6sccc6C(=O)O)C(C)(C)[C@@H]5CC[C@]43C)[C@@H]12", "UniProt P01116", 1.27),
    ("CC1(C)CCC23CCC4(C)C5(C)CCC6C(C)(C)C(OC(=O)c7c(F)ccc(F)c7C(=O)O)CCC6(C)C5CC(O)C4(OC2=O)C3C1 (centres unmarked)", "UniProt P01116", 10.6),
    ("C=C(C)[C@@H]1CC[C@]2(COC(=O)/C=C\\C(=O)O)CC[C@]3(C)[C@H](CC[C@@H]4[C@@]5(C)CC[C@H](O)C(C)(C)[C@@H]5CC[C@]43C)[C@@H]12", "UniProt P01116", 69.2),
    ("COc1cc(C(=O)O)c(C(=O)O[C@H]2CC[C@]3(C)[C@H]4CC=C5[C@@H]6[C@@H](C)[C@H](C)CC[C@]6(C(=O)O)CC[C@@]5(C)[C@]4(C)CC[C@H]3C2(C)C)cc1OC", "UniProt P01116", 53.6),
]

====

system under test: K-RAS4B^G12D (Homo sapiens, UniProt P01116, G12D)
Sequence (P01116 1-188 isoform P01116-2 G12D): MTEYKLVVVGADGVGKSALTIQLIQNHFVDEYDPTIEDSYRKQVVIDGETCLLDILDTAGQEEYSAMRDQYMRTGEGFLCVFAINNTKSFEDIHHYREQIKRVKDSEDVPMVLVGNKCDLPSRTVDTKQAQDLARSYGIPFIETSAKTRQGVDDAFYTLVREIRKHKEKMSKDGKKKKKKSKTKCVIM
experimental protocol: biochemical
condition parameters: K-RAS4B GDP/GTP exchange; eight data points, at least three determinations
Catalogue of IC50 readings, one per entry.

# compound, relational operator, IC50 / µM
rows = [
    ("CC1(C)CCC23CCC4(C)C5(C)CCC6C(C)(C)C(OC(=O)c7cc(F)c(F)cc7C(=O)O)CCC6(C)C5CC(O)C4(OC2=O)C3C1 (stereo not drawn)", "=", 26.5),
    ("C[C@H]1[C@H](C)CC[C@]2(C(=O)O)CC[C@]3(C)C(=CC[C@@H]4[C@@]5(C)CC[C@H](O)C(C)(C)[C@@H]5CC[C@]43C)[C@H]12", ">", 300),
    ("Cn1cnc(Cn2ccc3ccc(CNCc4[nH]c5ccccc5c4C4NC(=O)c5ccc(O)cc54)cc32)c1 (stereo not drawn) [Compound 54, BI2852, reference compound]", "=", 13.7),
]

====

Catalogue of IC50 readings, one per entry.
system under test: K-RAS4B G12V (Homo sapiens, UniProt P01116, G12V)
Sequence (P01116 1-188 isoform P01116-2 G12V): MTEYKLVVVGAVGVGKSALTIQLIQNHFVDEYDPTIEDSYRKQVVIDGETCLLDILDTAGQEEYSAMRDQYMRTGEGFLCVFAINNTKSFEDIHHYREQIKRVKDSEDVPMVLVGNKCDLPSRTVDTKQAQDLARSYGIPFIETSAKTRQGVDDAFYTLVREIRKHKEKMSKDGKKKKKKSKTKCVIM
experimental protocol: Nucleotide exchange assay (SOS1-mediated GDP/GTP exchange, GDP-Glo), K-RAS4B G12V
condition parameters: eight data points, at least three determinations, (*) single determination

# molecule, IC50 (µM)
measured = [
    ("Cn1cnc(Cn2ccc3ccc(CNCc4[nH]c5ccccc5c4C4NC(=O)c5ccc(O)cc54)cc32)c1 (stereo not shown) [Compound 54, BI2852, reference compound]", 10.9),
    ("C=C(C)[C@@H]1CC[C@]2(C(=O)O)CC[C@]3(C)[C@H](CC[C@@H]4[C@@]5(C)CC[C@H](OC(=O)c6ccccc6C(=O)O)C(C)(C)[C@@H]5CC[C@]43C)[C@@H]12", 16.6),
    ("CC1(C)CC[C@]2(C(=O)O)CC[C@]3(C)C(=CC[C@@H]4[C@@]5(C)CC[C@H](OC(=O)c6cc(F)c(F)cc6C(=O)O)C(C)(C)[C@@H]5CC[C@]43C)[C@@H]2C1", 2.71),
    ("CC1(C)CCC23CCC4(C)C5(C)CCC6C(C)(C)C(OC(=O)c7c(F)ccc(F)c7C(=O)O)CCC6(C)C5CC(O)C4(OC2=O)C3C1 (stereo not shown)", 8.7),
]
